This collection of values is drawn from patent US9790228B2.

The entries below are paired with their reported IC50.
Measured on: p110α/p85α (Homo sapiens (Human))
Sequence (P42336 whole entry): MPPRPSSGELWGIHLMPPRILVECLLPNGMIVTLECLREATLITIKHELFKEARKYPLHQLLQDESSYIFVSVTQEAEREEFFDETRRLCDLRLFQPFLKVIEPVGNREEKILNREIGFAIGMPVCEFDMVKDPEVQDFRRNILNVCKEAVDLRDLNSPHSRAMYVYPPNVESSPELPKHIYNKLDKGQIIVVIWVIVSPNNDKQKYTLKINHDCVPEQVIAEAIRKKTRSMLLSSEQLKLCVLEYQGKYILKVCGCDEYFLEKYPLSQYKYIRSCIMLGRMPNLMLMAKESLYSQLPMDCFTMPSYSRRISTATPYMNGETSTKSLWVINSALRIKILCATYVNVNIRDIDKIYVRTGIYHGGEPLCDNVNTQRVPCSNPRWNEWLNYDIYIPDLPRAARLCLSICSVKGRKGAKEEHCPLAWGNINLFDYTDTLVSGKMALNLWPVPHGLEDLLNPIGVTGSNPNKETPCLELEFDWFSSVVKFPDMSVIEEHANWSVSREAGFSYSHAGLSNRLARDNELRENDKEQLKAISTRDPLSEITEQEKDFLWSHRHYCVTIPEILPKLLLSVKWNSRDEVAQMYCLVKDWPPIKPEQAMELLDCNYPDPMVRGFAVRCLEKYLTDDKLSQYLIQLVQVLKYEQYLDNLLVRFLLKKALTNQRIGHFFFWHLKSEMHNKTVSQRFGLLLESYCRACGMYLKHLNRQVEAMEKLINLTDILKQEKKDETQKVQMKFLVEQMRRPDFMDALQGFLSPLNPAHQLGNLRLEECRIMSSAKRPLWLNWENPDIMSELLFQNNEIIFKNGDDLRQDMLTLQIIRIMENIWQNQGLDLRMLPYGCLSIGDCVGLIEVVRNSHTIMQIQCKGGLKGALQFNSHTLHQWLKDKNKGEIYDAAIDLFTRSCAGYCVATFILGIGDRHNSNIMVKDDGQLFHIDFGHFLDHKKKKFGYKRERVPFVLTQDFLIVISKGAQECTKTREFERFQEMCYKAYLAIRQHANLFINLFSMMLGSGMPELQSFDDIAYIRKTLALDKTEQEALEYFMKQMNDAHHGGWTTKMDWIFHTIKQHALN
Sequence (P27986 whole entry partner): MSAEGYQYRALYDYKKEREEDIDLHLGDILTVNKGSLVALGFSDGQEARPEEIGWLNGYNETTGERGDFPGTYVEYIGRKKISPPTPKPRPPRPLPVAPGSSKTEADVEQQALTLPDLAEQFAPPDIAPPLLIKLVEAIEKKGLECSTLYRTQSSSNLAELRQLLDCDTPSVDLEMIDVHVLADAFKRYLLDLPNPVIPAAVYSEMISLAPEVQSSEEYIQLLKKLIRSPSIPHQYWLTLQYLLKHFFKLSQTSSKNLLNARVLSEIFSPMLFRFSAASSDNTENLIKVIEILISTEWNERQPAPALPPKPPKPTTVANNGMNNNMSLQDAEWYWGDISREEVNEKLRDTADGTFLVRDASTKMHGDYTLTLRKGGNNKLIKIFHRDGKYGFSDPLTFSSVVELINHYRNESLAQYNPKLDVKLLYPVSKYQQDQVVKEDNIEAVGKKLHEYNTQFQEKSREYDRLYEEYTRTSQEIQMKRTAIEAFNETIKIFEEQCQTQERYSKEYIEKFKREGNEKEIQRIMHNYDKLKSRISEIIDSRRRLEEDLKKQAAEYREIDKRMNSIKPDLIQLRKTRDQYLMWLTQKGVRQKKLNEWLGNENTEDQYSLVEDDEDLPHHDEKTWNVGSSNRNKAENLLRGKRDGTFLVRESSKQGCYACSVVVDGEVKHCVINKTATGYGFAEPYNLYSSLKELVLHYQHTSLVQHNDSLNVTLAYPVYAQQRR
Protocol summary: PI3K α inhibition assay (TLC lipid kinase or HTRF)

Compound | IC50
Cc1ccccc1-c1nc2ccccc2cc1Cn1nc(-c2ccc3nc(N)ncc3c2)c2c(N)ncnc21 [Compound 132] | < 100 nM
CC(=O)Nc1nc2ccc(-c3nn(Cc4cc5ccccc5nc4-n4cnc(C)c4)c4ncnc(N)c34)cc2s1 [Compound 171] | 100 to 1000 nM
Nc1ncnc2c1c(-c1ccnc(O)c1)nn2Cc1cc2ccccc2nc1-c1ccccc1 [Compound 178] | > 1000 nM
CC(=O)Nc1nc2ccc(-c3nn(Cc4cc5ccccc5nc4-c4ccccc4F)c4ncnc(N)c34)cc2[nH]1 [Compound 183] | > 1000 nM
Nc1ncc2cc(-c3nn(Cc4cc5ccccc5nc4N4CCOCC4)c4ncnc(N)c34)ccc2n1 [Compound 139] | < 100 nM
Nc1ncnc2c1c(-c1cc(O)cc(F)c1)nn2Cc1cc2c(nc1-c1ccccc1F)CCC2 [Compound 101] | > 1000 nM

Input: Quick one: IC50 of NC1=NC=NC2C1C(c1ccc(O)nc1)=NN2Cc1cc2ccccc2nc1-c1ccccc1 (centres unmarked) [Compound 162] ?
Output: > 1000 nM

Input: Quick one: IC50 of Cc1cn(-c2nc3ccccc3cc2Cn2nc(-c3ccc4nc(N)sc4c3)c3c(N)ncnc32)cn1 [Compound 176] ?
Output: 100 to 1000 nM

Input: Quick one: IC50 of CC(C)Oc1nc2ccccc2cc1Cn1nc(-c2cc(O)cc(F)c2)c2c(N)ncnc21 [Compound 156] ?
Output: > 1000 nM

Input: Quick one: IC50 of NC(=O)c1nn(Cc2cc3ccccc3nc2-c2ccccc2F)c2ncnc(N)c12 [Compound 191] ?
Output: > 1000 nM

Input: Quick one: IC50 of CCC(c1cc2ccccc2nc1N1CCCC1)n1nc(-c2cc(O)cc(F)c2)c2c(N)ncnc21 (centres unmarked) [Compound 40] ?
Output: > 1000 nM
